# procedure_details: physchem
# measurement_context: octanol/water
property_measured: logD

| compound | logD |
| --- | --- |
| CC(C)Cn1c(=O)n(C)c(=O)c2c(C(=O)N3CC[C@@H](O)C3)c(Cc3c[nH]c4ncccc34)sc21 | 1.7 |
| CC(C)Cn1c(=O)n(C)c(=O)c2c(S(=O)(=O)N3CC[C@@H](O)C3)c(Cc3ccccc3C(F)(F)F)sc21 (racemic) | 3.3 |
| CC(C)Cn1c(=O)n(C)c(=O)c2c(C(=O)N3CC[C@@H](O)C3)c(Cc3cncc4ccccc34)sc21 | 1.7 |
| CC(C)Cn1c(=O)n(C)c(=O)c2c(S[C@@H]3CCC[C@H]3O)c(Cc3ccccc3C(F)(F)F)sc21 (racemic) | 4.2 |
| CC(C)Cn1c(=O)n(C)c(=O)c2c(S[C@@H]3CC[C@H](O)C3)c(Cc3ccccc3C(F)(F)F)sc21 (racemic) | 4.4 |

[P] CC(C)Cn1c(=O)n(C)c(=O)c2c(C(=O)N3CC[C@@H](O)C3)c(Cc3ccnc4ccccc34)sc21
[Q] CC(C)Cn1c(=O)n(C)c(=O)c2c(C(=O)N3CC(C)(O)C3)c(Cc3ccccc3C(F)(F)F)sc21
Higher logD: P or Q ? Pick one; state its label. Q
